molecular target: DNA topoisomerase 2-alpha (Homo sapiens, UniProt P11388); experiment: Inhibition of human topoisomerase 2alpha mediated decatenation using kDNA as susbtrate preincubated for 20 mins followed by substrate and ATP addition and measured after 1 hr by ethidium bromide staining based gel electrophoresis method
Sequence (P11388 whole entry): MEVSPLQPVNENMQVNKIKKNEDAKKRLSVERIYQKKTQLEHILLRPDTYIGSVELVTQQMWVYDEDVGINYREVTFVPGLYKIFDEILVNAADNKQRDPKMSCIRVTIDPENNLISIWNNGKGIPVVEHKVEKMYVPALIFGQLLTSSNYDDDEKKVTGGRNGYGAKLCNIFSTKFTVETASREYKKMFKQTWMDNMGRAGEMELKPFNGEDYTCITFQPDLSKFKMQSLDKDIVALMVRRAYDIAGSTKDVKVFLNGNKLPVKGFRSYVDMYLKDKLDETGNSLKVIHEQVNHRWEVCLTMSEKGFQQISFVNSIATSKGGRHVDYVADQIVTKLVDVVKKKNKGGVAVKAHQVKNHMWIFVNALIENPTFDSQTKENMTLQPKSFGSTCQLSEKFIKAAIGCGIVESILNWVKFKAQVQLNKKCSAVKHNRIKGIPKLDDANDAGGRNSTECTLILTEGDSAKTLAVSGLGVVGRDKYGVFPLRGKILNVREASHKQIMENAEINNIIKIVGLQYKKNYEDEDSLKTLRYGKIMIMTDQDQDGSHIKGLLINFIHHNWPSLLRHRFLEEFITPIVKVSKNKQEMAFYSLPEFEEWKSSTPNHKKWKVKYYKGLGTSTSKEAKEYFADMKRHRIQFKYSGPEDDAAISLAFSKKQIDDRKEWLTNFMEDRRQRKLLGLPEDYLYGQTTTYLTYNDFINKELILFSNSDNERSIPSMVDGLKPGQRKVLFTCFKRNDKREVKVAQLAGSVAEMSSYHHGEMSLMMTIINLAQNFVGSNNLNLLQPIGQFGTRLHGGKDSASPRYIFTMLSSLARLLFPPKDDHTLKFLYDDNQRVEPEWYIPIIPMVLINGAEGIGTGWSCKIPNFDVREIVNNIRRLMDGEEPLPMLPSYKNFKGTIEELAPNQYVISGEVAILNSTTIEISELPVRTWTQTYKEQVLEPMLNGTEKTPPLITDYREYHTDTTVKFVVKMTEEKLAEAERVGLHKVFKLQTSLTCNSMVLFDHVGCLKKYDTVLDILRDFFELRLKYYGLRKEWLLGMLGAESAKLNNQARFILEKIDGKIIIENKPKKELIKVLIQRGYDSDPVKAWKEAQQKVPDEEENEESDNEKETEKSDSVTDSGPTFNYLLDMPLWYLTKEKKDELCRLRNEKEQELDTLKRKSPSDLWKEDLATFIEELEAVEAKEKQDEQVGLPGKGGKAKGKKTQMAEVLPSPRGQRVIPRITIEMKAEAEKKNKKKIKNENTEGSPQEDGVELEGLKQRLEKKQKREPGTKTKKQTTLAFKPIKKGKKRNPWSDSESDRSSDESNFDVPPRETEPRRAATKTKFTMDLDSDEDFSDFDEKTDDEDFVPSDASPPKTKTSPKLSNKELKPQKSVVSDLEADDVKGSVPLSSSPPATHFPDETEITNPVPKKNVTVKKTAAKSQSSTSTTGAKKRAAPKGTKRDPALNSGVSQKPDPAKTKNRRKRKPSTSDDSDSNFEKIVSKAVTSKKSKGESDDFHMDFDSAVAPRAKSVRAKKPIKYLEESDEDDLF
Measured parameter: IC50 (µM)

Just so you know, measured IC50 for "CC(C)(C)C(=O)Nc1ccc2c(-c3ccccc3)ccnc2c1O" came out at 1.3

Just so you know, measured IC50 for "CC(=O)Nc1ccc2c(-c3cccc(C(F)(F)F)c3)ccnc2c1O" came out at 3.4

I. CC(=O)Nc1ccc(-c2ccnc3c(O)c(NC(C)=O)ccc23)cc1
II. COc1cc(NC(C)=O)c(O)c2nccc(-c3ccccc3NC(=O)c3ccccc3)c12
Incoming: Would you let me know which has the greater IC50 value, I or II ? Kindly state the label of the option you pick.
Outgoing: I

###

system: SW-620; assay: Anticlonogenic activity against human SW620 cells assessed as loss of cancer stem cell stemness by measuring inhibition of colony formation at 10 uM incubated for 24 hrs followed by replating and measured after 7 days by clonogenic assay; type: functional, cell-based
The source made the active and inactive calls. The rule behind the calls is not given here.
Measured parameter: inhibition

Solved entries (count: 4):
"CC(C)(C)C(=O)Nc1ccc2c(-c3ccccc3)ccnc2c1O" tested on SW-620 gave inhibition: Active

"CC(=O)Nc1ccc2c(-c3cc(F)ccc3O)ccnc2c1O" tested on SW-620 gave inhibition: Active

"O=C(CCN1CCOCC1)Nc1ccc2c(-c3cc(F)ccc3O)ccnc2c1O" tested on SW-620 gave inhibition: Active

"O=C(CCN1CCOCC1)Nc1ccc2c(-c3cc4ccccc4o3)ccnc2c1O" tested on SW-620 gave inhibition: Active

Further cases:
"COc1cc(NC(C)=O)c(O)c2nccc(-c3ccccc3NC(=O)c3ccccc3)c12" tested on SW-620 gave inhibition: Active

"CC(=O)Nc1ccc2c(-c3cc4ccccc4o3)ccnc2c1O" tested on SW-620 gave inhibition: Active

"CC(=O)Nc1ccc(-c2ccnc3c(O)c(NC(C)=O)ccc23)cc1" tested on SW-620 gave inhibition: Active

"CC(=O)Nc1ccc2c(-c3ccoc3)ccnc2c1O" tested on SW-620 gave inhibition: Active

###

target: DNA topoisomerase 2-alpha (Homo sapiens); experiment: Inhibition of topoisomerase 2alpha dependent TCF transcription in human SW620 organoids transduced with TOPflash luminescent reporter after 72 hrs by luciferase based TOPFlash reporter gene assay
pIC50: −log10 of the molar value.
Measured parameter: pIC50

Solved entries (count: 6):
Just so you know, measured pIC50 for "CC(=O)Nc1ccc2c(-c3cc4ccccc4o3)ccnc2c1O" came out at 6.00

Just so you know, measured pIC50 for "CC(=O)Nc1ccc2c(-c3cc(F)ccc3O)ccnc2c1O" came out at 5.62

Just so you know, measured pIC50 for "O=C(CCN1CCOCC1)Nc1ccc2c(-c3cc4ccccc4o3)ccnc2c1O" came out at 5.60

Just so you know, measured pIC50 for "O=C(CN1CCOCC1)Nc1ccc2c(-c3cc4ccccc4o3)ccnc2c1O" came out at 5.96

Just so you know, measured pIC50 for "CC(C)(C)C(=O)Nc1ccc2c(-c3ccccc3)ccnc2c1O" came out at 5.33

Just so you know, measured pIC50 for "COc1cc(NC(C)=O)c(O)c2nccc(-c3ccccc3NC(=O)c3ccccc3)c12" came out at 5.62

A. CC(=O)Nc1ccc2c(-c3cccs3)ccnc2c1O
B. CC(=O)Nc1ccc2c(-c3ccoc3)ccnc2c1O
Incoming: When the recorded pIC50 values are compared, which is smaller: that of A or that of B ? Kindly state the label of the option you pick.
Outgoing: A

A. O=C(CCN1CCOCC1)Nc1ccc2c(-c3cc(F)ccc3O)ccnc2c1O
B. CC(=O)Nc1ccc(-c2ccnc3c(O)c(NC(C)=O)ccc23)cc1
Incoming: When the recorded pIC50 values are compared, which is smaller: that of A or that of B ? Kindly state the label of the option you pick.
Outgoing: B

###

molecular target: DNA topoisomerase 2-alpha (Homo sapiens, UniProt P11388); assay: Inhibition of human topoisomerase 2alpha mediated decatenation at 30 uM using kDNA as susbtrate preincubated for 20 mins followed by substrate and ATP addition and measured after 1 hr by ethidium bromide staining based gel electrophoresis method relative to control
Measured parameter: inhibition (%)

Just so you know, measured inhibition for "O=C(CN1CCOCC1)Nc1ccc2c(-c3cc(F)ccc3O)ccnc2c1O" came out at 4

P. CC(=O)Nc1ccc2c(-c3ccoc3)ccnc2c1O
Q. CC(=O)Nc1ccc2c(-c3ccco3)ccnc2c1O
R. CC(=O)Nc1ccccc1-c1ccnc2c(O)c(NC(=O)CCN3CCOCC3)ccc12
S. CC(=O)Nc1ccc2c(-c3ccccc3)ccnc2c1O
Incoming: Please produce an ascending ranking of these molecules based on inhibition. // rank by listing labels in the order requested
Outgoing: Q, R, S, P
(Q: 0%, R: 1%, S: 25%, P: 86%)

###

test system: SW-620; test: Cytotoxicity against human SW620 organoids assessed as cell death with loss of membrane integrity after 72 hrs by CellTox Green assay; assay type: functional, cell-based; conditions: SW-620, 72 h
Measured parameter: EC50

Solved entries (count: 3):
Just so you know, measured EC50 for "CC(=O)Nc1ccc2c(-c3cccs3)ccnc2c1O" came out at > 30 µM

Just so you know, measured EC50 for "O=C(CCN1CCOCC1)Nc1ccc2c(-c3cc4ccccc4o3)ccnc2c1O" came out at 17.4 µM

Just so you know, measured EC50 for "CC(=O)Nc1ccc2c(-c3cc(F)ccc3O)ccnc2c1O" came out at > 30 µM

Further cases:
Just so you know, measured EC50 for "CC(C)(C)C(=O)Nc1ccc2c(-c3ccccc3)ccnc2c1O" came out at > 30 µM

###

biological target: DNA topoisomerase 2-alpha (Homo sapiens, UniProt P11388); experiment: Inhibition of human topoisomerase 2alpha mediated decatenation at 30 uM using kDNA as susbtrate preincubated for 20 mins followed by substrate and ATP addition and measured after 1 hr by ethidium bromide staining based gel electrophoresis method relative to control
Measured parameter: inhibition (%)

Just so you know, measured inhibition for "CC(=O)Nc1ccc2c(-c3ccc(F)cc3)ccnc2c1O" came out at 1

a. CC(=O)Nc1ccc2c(-c3cccc(F)c3)ccnc2c1O
b. CC(C)(C)C(=O)Nc1ccc2c(-c3cc(F)ccc3O)ccnc2c1O
c. CC(=O)Nc1ccccc1-c1ccnc2c(O)c(NC(C)=O)ccc12
Incoming: List these items ordered by inhibition, big to small. // rank by listing labels in the order requested
Outgoing: a, c, b
(a: 100%, c: 1%, b: 0%)

###

target: DNA topoisomerase 2-alpha (Homo sapiens, UniProt P11388); assay: Inhibition of human topoisomerase 2alpha mediated decatenation at 30 uM using kDNA as susbtrate preincubated for 20 mins followed by substrate and ATP addition and measured after 1 hr by ethidium bromide staining based gel electrophoresis method relative to control
Measured parameter: inhibition (%)

Solved entries (count: 3):
"CC(=O)Nc1ccc2c(-c3cc(Cl)ccc3O)ccnc2c1O" tested on DNA topoisomerase 2-alpha (Homo sapiens, UniProt P11388) gave inhibition: 0

"CC(=O)Nc1ccc2c(-c3cccc(O)c3)ccnc2c1O" tested on DNA topoisomerase 2-alpha (Homo sapiens, UniProt P11388) gave inhibition: 0

"COc1cc(NC(C)=O)c(O)c2nccc(-c3ccccc3NC(=O)c3ccccc3)c12" tested on DNA topoisomerase 2-alpha (Homo sapiens, UniProt P11388) gave inhibition: 100

A. CC(=O)Nc1ccc2c(-c3cc(F)ccc3O)ccnc2c1O
B. CC(=O)Nc1ccc2c(-c3cc4ccccc4s3)ccnc2c1O
Incoming: When the recorded inhibition values are compared, which is smaller: that of A or that of B ? Kindly state the label of the option you pick.
Outgoing: B

Where do these numbers come from? They come from ChEMBL document CHEMBL4321838.
